assay.notes: Cytotoxicity in Huh7 cells, MTS assay
Assay type: cell-based, Human
stated.conditions: human, Huh7 cells, cell growth reduced by 50%
reported.endpoint: CC50 at 3 days

CCCCCCCCCCCCOc1ccc2c(c1)nc1cc[nH]c(=O)n12: > 100 µM
COc1ccc(C(OC[C@H]2O[C@@H](n3ccc4nc5cc(O)ccc5n4c3=O)C[C@@H]2O)(c2ccccc2)c2ccc(OC)cc2)cc1: < 0.8 µM
CCC(CC)COC(=O)[C@H](C)N[P@](=O)(OC[C@H]1O[C@@](C#N)(c2ccc3c(N)ncnn23)[C@H](O)[C@@H]1O)Oc1ccccc1 [Remdesivir, reference compound]: > 10 µM
COc1ccc(C(OC[C@H]2O[C@@H](n3ccc4nc5cc(O)ccc5n4c3=O)[C@H](O)[C@@H]2O)(c2ccccc2)c2ccc(OC)cc2)cc1: < 0.8 µM
O=c1n([C@@H]2O[C@H](CO)[C@@H](O)[C@H]2O)ccc2nc3cc(O)ccc3n12: > 100 µM

====

Tested on: Vero cells
stated.conditions: minimum cytotoxic concentration, microscopically detectable alteration of cell morphology
reported.endpoint: Cytotoxicity Cell Morphology (MCC) (μM)

COc1ccc(C(OC[C@H]2O[C@@H](n3ccc4nc5cc(O)ccc5n4c3=O)[C@H](O)[C@@H]2O)(c2ccccc2)c2ccc(OC)cc2)cc1 [Compound 3b]: 20
COc1ccc2c(c1)nc1ccn([C@@H]3O[C@H](CO)[C@@H](O)[C@H]3O)c(=O)n12 [Compound 8b]: 100
COc1ccc(C(OC[C@H]2O[C@@H](n3ccc(N)nc3=O)[C@H](O)[C@@H]2O)(c2ccccc2)c2ccc(OC)cc2)cc1 [Compound 9b]: 100
COc1ccc2c(c1)nc1ccn([C@H]3C[C@H](O)[C@@H](CO)O3)c(=O)n12 [Compound 8a]: 100

====

The entries below come with measured EC50 values attached.
Test system: SARS-CoV-2 B1.1 529 BA.1 (Omicron)
assay.notes: Cytopathic effect reduction, SARS-CoV-2 B1.1 529 BA.1 (Omicron) in Vero cells
Type: cell-based
stated.conditions: Severe acute respiratory syndrome coronavirus 2, CPE reduced by 50%, read-out: Antiviral Activity (EC50) B1.1 529 BA.1 (Omicron)
reported.endpoint: EC50

COc1ccc(C(OC[C@H]2O[C@@H](n3ccc4nc5cc(O)ccc5n4c3=O)[C@H](O)[C@@H]2O)(c2ccccc2)c2ccc(OC)cc2)cc1: > 20 µM
COc1ccc2c(c1)nc1ccn([C@@H]3O[C@H](CO)[C@@H](O)[C@H]3O)c(=O)n12: > 20 µM
COc1ccc(C(OC[C@H]2O[C@@H](n3ccc4nc5cc(OC)ccc5n4c3=O)C[C@@H]2O)(c2ccccc2)c2ccc(OC)cc2)cc1: > 100 µM
COc1ccc(C(OC[C@H]2O[C@@H](n3ccc(N)nc3=O)C[C@@H]2O)(c2ccccc2)c2ccc(OC)cc2)cc1: > 100 µM

====

Tested on: HEL299 cells
stated.conditions: minimum cytotoxic concentration, microscopically detectable alteration of cell morphology
The entries below come with measured Cytotoxicity Cell Morphology (MCC) values attached.
reported.endpoint: Cytotoxicity Cell Morphology (MCC) (μM)

COc1ccc(C(OC[C@H]2O[C@@H](n3ccc(N)nc3=O)C[C@@H]2O)(c2ccccc2)c2ccc(OC)cc2)cc1: 100
COc1ccc(C(OC[C@H]2O[C@@H](n3ccc4nc5cc(O)ccc5n4c3=O)[C@H](O)[C@@H]2O)(c2ccccc2)c2ccc(OC)cc2)cc1: 20
COc1ccc2c(c1)nc1ccn([C@H]3C[C@H](O)[C@@H](CO)O3)c(=O)n12: 100
